Measured inhibition accompanies every entry in the list below.
Target desc: Sodium-dependent dopamine transporter (Homo sapiens)
Condition details: Compound concentration 10 µM
Description: PDSP Primary Binding target: SLC6A3 - Compounds are tested at 10 uM concentration, plate are incubated at room temperature in the dark for 90 minutes. Reaction are stopped by vacuum filtration onto 0.3% polyethyleneimine soaked filter mats using Filtermate harvester. Scintilation cocktail is then melted onto microwave-dried filters on a hot plate and the radio activity is counted in Microbia counter.
Reply with just the number (in %).

Reference set, count: 5
Compound | Measurement units | inhibition
Cc1nc2sccn2c(=O)c1CCN1CCC(=C(c2ccc(F)cc2)c2ccc(F)cc2)CC1 | % | 68.9
OC1(c2ccc(Cl)cc2)CCN(Cc2c[nH]c3ccccc23)CC1 | % | 80
Cc1cccc([C@H](C)c2c[nH]cn2)c1C | % | 39.2
CCc1nn(CCCN2CCN(c3cccc(Cl)c3)CC2)c(=O)n1CCOc1ccccc1 | % | 78.7
CS(=O)(=O)NC[C@H]1CC[C@H](Nc2nc3c(s2)CCSc2ccccc2-3)CC1 | % | 3.98

Looking up Cc1cc(C(=O)N2Cc3cnn(C)c3Nc3ccccc32)ccc1CNC(=O)N1CCC[C@H]1C(=S)N1CCCN(C)CC1 , I found its inhibition recorded as 19.8

Looking up COc1ccccc1CN[C@H]1C2CCN(CC2)[C@H]1C(c1ccccc1)c1ccccc1 , I found its inhibition recorded as 40

Looking up Nc1nc(NCCc2ccc(O)cc2)nc2nc(-c3ccco3)nn12 , I found its inhibition recorded as 23.6

Looking up CN1C[C@H](C(=O)N[C@]2(C)O[C@@]3(O)[C@@H]4CCCN4C(=O)[C@H](Cc4ccccc4)N3C2=O)C[C@@H]2c3cccc4[nH]cc(c34)C[C@H]21 , I found its inhibition recorded as 5.72

Looking up CN1CCN(c2ccc(Nc3c4ccccc4nc4ccccc34)cc2)CC1 , I found its inhibition recorded as 62.7

Looking up Brc1c(NC2=NCCN2)ccc2nccnc12 , I found its inhibition recorded as -6.87

Looking up CCCCN(CCCC)C(=O)CN1C[C@@H](c2ccc3c(c2)OCO3)[C@H](C(=O)O)[C@H]1c1ccc(OC)cc1 , I found its inhibition recorded as 25.8
